- ASSAYED_TARGET: T1, recombinant human CTGF-Fc protein (Creative Biomart) (human)
- T1 construct: Bought; also called human CTGF with a human IgG1 Fc Tag
- T1 sequence (chain, as listed by the source limits assumed): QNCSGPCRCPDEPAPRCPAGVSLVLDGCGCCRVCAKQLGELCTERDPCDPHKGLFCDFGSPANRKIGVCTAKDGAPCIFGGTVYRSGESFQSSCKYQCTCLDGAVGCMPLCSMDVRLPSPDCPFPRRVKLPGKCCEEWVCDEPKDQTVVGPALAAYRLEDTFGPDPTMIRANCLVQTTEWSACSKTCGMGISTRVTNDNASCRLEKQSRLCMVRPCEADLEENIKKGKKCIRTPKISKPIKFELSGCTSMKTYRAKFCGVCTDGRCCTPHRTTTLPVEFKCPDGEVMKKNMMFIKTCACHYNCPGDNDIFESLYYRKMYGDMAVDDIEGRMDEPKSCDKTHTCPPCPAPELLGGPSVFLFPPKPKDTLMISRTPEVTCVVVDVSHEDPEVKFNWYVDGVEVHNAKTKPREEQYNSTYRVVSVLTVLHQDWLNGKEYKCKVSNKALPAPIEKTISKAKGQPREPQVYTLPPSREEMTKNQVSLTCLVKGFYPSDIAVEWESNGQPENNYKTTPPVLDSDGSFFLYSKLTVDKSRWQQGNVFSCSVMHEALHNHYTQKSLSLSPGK
- ASSAY_PROTOCOL: SPR (Biacore)
- Method: The binding of exemplary lipocalin muteins to human (Creative Biomart), cynomolgus, rat (R&D Systems) and mouse CTGF (Abbexa) was determined by SPR using a Biacore instrument (Cytiva, formerly GE Healthcare). Some targets were fused to a human IgG1 Fc tag, and captured via the anti-human IgG antibody kit, others were directly immobilized. For some measurements, human CTGF with a human IgG1 Fc Tag or rat or murine CTGF without a tag were directly immobilized to a CM5 Chip. […]
Consider the following binders and their measured koff readings.
Dear colleague, please return just the value in s⁻¹, with no unit written.

- BINDER: "lipocalin mutein of SEQ ID NO: 35 (designed binder, also called hNGAL mutein; not shown: C-terminal His-tag) QDSTSDLIPAPPLSKVPLQQNFQDNQFQGKWYVVGWAGNVKLREDKQPLKMSATIYELKEDKSYDVTEVVFEQKKCHYIIKTFVPGSQPGEFTAGDIKSPPGYTSSLVRVVSTNYNQHAMVFFKKVSQNREFFWITLYGRTKELTSELKENFIRFSKSLGLPENHIVFPVPIDQCIDG"
  koff / s⁻¹: "5.94e-05"

# input Entry under review: lipocalin mutein of SEQ ID NO: 7 (designed binder, Parent hNGAL mutein; also called hNGAL mutein) QDSTSDLIPAPPLSKVPLQQNFQDNQFHGKWYVVGLAGNYGLRTDKRPSKMFATIYELKEDKSYDVTSVRFEQERCHYTIRTFVPGSQPGEFTTGSIKSRPGQTSSLVRVVSTNYNQHAMVFFKSVIQNREYFAITLYGRTKELTSELKENFIRFSKSLGLPENHIVFPVPIDQCIDGSAWSHPQFEK . Reported koff?
# output 0.00587
